Each recorded value in this set is attributed to patent US10294202B2.

Tested on: barnyardgrass
Assay: Test B flooded paddy test
Type: in vivo, Echinochloa crus-galli
Conditions: 250 g ai/ha, Flood; scale of 0 to 100 where 0 is no effect and 100 is complete control
Description: Plant species in the flooded paddy test selected from rice (Oryza sativa), sedge, umbrella (small-flower umbrella sedge, Cyperus difformis), ducksalad (Heteranthera limosa), and barnyardgrass (Echinochloa crus-galli) were grown to the 2-leaf stage for testing. […] Treated plants and controls were maintained in a greenhouse for 13 to 15 days, after which time all species were compared to controls and visually evaluated. […]
# Plant response rating, Barnyardgrass per entry
reported.endpoint: Plant response rating, Barnyardgrass

- compound: "O=C1NCC(c2ccccc2)C1C(=O)Nc1ccc(Br)cc1F (racemic)"
  study.system: "barnyardgrass"
  reported.endpoint: "Plant response rating, Barnyardgrass"
  observed.value: 0
- compound: "COc1cc(C2CNC(=O)C2C(=O)Nc2cccc(F)c2F)ccc1F (racemic)"
  study.system: "barnyardgrass"
  reported.endpoint: "Plant response rating, Barnyardgrass"
  observed.value: 30
- compound: "O=C1NCC(c2ccc(OC(F)(F)F)cc2)C1C(=O)Nc1ccccc1F (racemic)"
  study.system: "barnyardgrass"
  reported.endpoint: "Plant response rating, Barnyardgrass"
  observed.value: 0
- compound: "O=C1NCC(c2ccc3c(c2)OC(F)(F)O3)C1C(=O)Nc1ccccc1F (stereo not shown)"
  study.system: "barnyardgrass"
  reported.endpoint: "Plant response rating, Barnyardgrass"
  observed.value: 20

----------
Test system: galium
Assay: Test A postemergence herbicide test
Format: in vivo, Galium aparine
Settings: 500 g ai/ha, 0 to 100 scale (0 no effect, 100 complete control)
Description: At the same time, plants selected from these crop and weed species and also blackgrass (Alopecurus myosuroides), and galium (catchweed bedstraw, Galium aparine) were planted in pots containing the same blend of loam soil and sand and treated with postemergence applications of test chemicals formulated in the same manner. Plants ranged in height from 2 to 10 cm and were in the one- to two-leaf stage for the postemergence treatment. […]
Recorded Plant response rating, Galium by entry

- molecule: "O=C1NCC(c2ccc(Cl)c(Cl)c2)C1C(=O)Nc1ccc(F)c(F)c1F (stereo not drawn)"
  study.system: "galium"
  Plant response rating, Galium: 0
- molecule: "O=C1NCC(c2ccc(SC(F)(F)F)cc2)C1C(=O)Nc1ccccc1F (stereo not drawn)"
  study.system: "galium"
  Plant response rating, Galium: 0
- molecule: "O=C1NCC(c2cnn(CC(F)(F)F)c2)C1C(=O)Nc1ccccc1C(F)(F)F (stereo not drawn)"
  study.system: "galium"
  Plant response rating, Galium: 0

----------
test system: pigweed; experiment: Test A pre-/postemergence herbicide test; format: in vivo, Amaranthus retroflexus; settings: 125 g ai/ha; visual rating, 0 to 100 scale, 0 no effect, 100 complete control; approximately 10 days; preemergence

- compound: "O=C1NCC(c2cccc(C(F)F)c2)C1C(=O)Nc1cccc(F)c1F (racemic)"
  study.system: "pigweed"
  Plant response rating, Pigweed: 50
- compound: "O=C1NCC(c2ccc(F)cc2)C1C(=O)Nc1ccc(F)c(F)c1F (racemic)"
  study.system: "pigweed"
  Plant response rating, Pigweed: 30
- compound: "CCCN1CC(c2ccc(C(F)(F)F)cc2)C(C(=O)Nc2ccccc2F)C1=O (stereo not drawn)"
  study.system: "pigweed"
  Plant response rating, Pigweed: 0
- compound: "O=C1NCC(c2ccc(F)cc2)C1C(=O)Nc1ccccc1F (stereo not drawn)"
  study.system: "pigweed"
  Plant response rating, Pigweed: 0
- compound: "O=C1NC[C@@H](c2cccc(C(F)(F)F)c2)[C@@H]1C(=O)Nc1cccc(F)c1F"
  study.system: "pigweed"
  Plant response rating, Pigweed: 0
- compound: "O=C1NCC(c2cccc(S(F)(F)(F)(F)F)c2)C1C(=O)Nc1ccccc1F (racemic)"
  study.system: "pigweed"
  Plant response rating, Pigweed: 0
- compound: "O=C1NCC(c2ccc(C(F)(F)F)cc2)C1C(=O)Nc1ccccc1F (stereo not drawn)"
  study.system: "pigweed"
  Plant response rating, Pigweed: 70
- compound: "O=C1NCC(c2cccc(S(F)(F)(F)(F)F)c2)C1C(=O)Nc1cccc(F)c1F (stereo not drawn)"
  study.system: "pigweed"
  Plant response rating, Pigweed: 0
- compound: "O=C1NCC(c2cccc(S(F)(F)(F)(F)F)c2)C1C(=O)Nc1ccccc1C(F)(F)F (stereo not drawn)"
  study.system: "pigweed"
  Plant response rating, Pigweed: 0
